Measured on: D(3) dopamine receptor (Homo sapiens)
Measurement description: qHTS of D3 Dopamine Receptor Antagonist: qHTS; note: % is set by controls: 0 for no effect and ±100 for the full control effect
Study conditions: D3R cells, DiscoveRx beta-arrestin luminescence, antagonist mode
Among all 360,000 compounds or so, about 9,100 (2.5%) were called active. Not shown: some 4% with an inconclusive outcome. Cut-off read from the data, not from the text of the source: active = max response below about -50%; inconclusive = no clear call, values can overlap the other calls; inactive = above that. This is one part of a sample in which actives are shown more often than they occur.
Hi there, use one of these labels in your reply, thanks! active, inactive

# Compound, Category
data = [
    ("O=C(O)C1=C(C(=O)O)C2CCC1C2", "inactive"),
    ("O=NN(CCCl)C(=O)NCCc1cccc[n+]1[O-]", "inactive"),
    ("COC(=O)[C@]12CCCCC=C1N(Cc1ccco1)C(=O)[C@H](CC(=O)NCCCCc1ccccc1)C2", "inactive"),
    ("COCCCNCC(=O)Nc1sc(C)c(C)c1C(=O)OC", "active"),
    ("CCN(CC)S(=O)(=O)c1cc([N+](=O)[O-])ccc1N=Nc1c(O)n(C)c2ccccc12", "inactive"),
    ("COCC1CCN(C(=O)C2CCC(=O)N(Cc3cccc(C(F)(F)F)c3)C2)CC1 (centres undefined)", "inactive"),
    ("COc1cc(C=C(OC(C)=O)c2ccc3c(c2)OCO3)cc(OC)c1OC", "inactive"),
    ("O=c1[nH]c(CSc2ncc(-c3ccc(F)cc3)n2Cc2ccco2)nc2ccccc12", "inactive"),
]

Request: # lookup: test call for CCN(CC)CCn1c2c(c(SCC(=O)Nc3nc4ccccc4s3)nc1=O)CCCC2
Response: inactive

Request: Fill in: this test's call for NC(CSC(c1ccccc1)(c1ccccc1)c1ccc(-c2ccccc2)cc1)C(=O)O (centres undefined) is ___
Response: inactive

Request: Write down the call the test reported for this compound. Item: COc1ccc(CN2C3CCCC2CC(NC(=O)c2cccc(F)c2)C3)cc1 (centres undefined)
Response: active

Request: Please state the recorded outcome for this compound: COc1ccc(C2CC(c3cccc(OC)c3)=NN2c2ccc(S(N)(=O)=O)cc2)cc1 (centres undefined)
Response: inactive

Request: Name the outcome recorded for O=C(CN1CCN(S(=O)(=O)c2ccc(Br)cc2)CC1)Nc1ccccc1C(=O)c1ccccc1 in the assay.
Response: active

Request: # fetch the recorded call for COCCNC(=O)c1cc2c(Br)ccc(Br)c2nc1N here
Response: inactive

Request: Would you mind telling me which call this test gave CCc1cc(C(=O)N(CC)CC(=O)Nc2c(F)cccc2F)sc1C ?
Response: inactive

Request: Answer briefly: the call reported for CC(=O)C[C@@H]1OC[C@H](C)N1S(=O)(=O)c1ccc(C)cc1 in this assay.
Response: inactive

Request: Hey, what did the test say about COc1ccc(NC(=O)N2CCC(Cc3ccccc3)CC2)cc1 ?
Response: inactive

###

Measured on: D(3) dopamine receptor (Homo sapiens) (UniProt P35462)
Sequence (P35462 whole entry, looked up): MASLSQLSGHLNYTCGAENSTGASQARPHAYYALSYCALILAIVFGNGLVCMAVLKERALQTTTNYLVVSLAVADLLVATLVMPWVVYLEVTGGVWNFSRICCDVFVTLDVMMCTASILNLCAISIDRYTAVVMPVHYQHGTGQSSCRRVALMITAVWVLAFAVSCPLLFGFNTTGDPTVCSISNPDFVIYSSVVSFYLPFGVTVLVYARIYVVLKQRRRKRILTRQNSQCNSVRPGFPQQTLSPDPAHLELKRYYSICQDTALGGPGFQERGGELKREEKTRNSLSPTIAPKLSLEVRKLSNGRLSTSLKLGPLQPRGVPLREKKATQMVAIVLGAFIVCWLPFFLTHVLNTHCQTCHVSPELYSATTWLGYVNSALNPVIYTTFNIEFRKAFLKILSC
Measurement description: qHTS of D3 Dopamine Receptor Antagonist: qHTS; note: % is set by controls: 0 for no effect and ±100 for the full control effect
Study conditions: D3R cells, DiscoveRx beta-arrestin luminescence, antagonist mode
The whole screen tested about 360,000 compounds, of which about 9,100 (2.5%) were called active. Inconclusive results (about 4%) are left out. Rule as the data show it: active = max response below about -50%; inconclusive = no clear call, values can overlap the other calls; inactive = above that. Only a selection was taken, and actives are over-represented in it overall.
The categories you may choose from are TRUE for active, FALSE for inactive

// known answers, use as guide
# Molecule, Category
rows = [
    ("COc1ccc(C(=NN)c2ccc(OC)cc2)cc1", "FALSE"),
    ("Cc1ccc(-c2nnc(SCC(=O)N/N=C/c3cccs3)n2-c2ccc(C)cc2)cc1", "FALSE"),
    ("CCOc1ccc(CCN2C(=O)C(=O)N([C@@H](CC(C)C)CN3CCC[C@H]3CN3C(=O)C(=O)NC[C@@H]3Cc3ccccc3)C[C@@H]2CC(C)C)cc1", "FALSE"),
    ("CCC(=O)c1ccc(OCC(O)CN2C(=O)NC(C)(C)C2=O)cc1 (centres undefined)", "FALSE"),
    ("CCN(CC)CCNCc1ccc(OCc2ccc(Cl)nc2)c(OC)c1", "FALSE"),
    ("Cc1nnc(SCC(=O)N/N=C/c2cn(-c3ccccc3)nc2-c2ccc(F)cc2)n1-c1ccccc1", "TRUE"),
]

Request: In this assay, the call recorded for CC(OC(=O)c1ccc(NC(=O)CC#N)cc1)C(=O)Nc1ccc(S(=O)(=O)N2CCCC2)cc1 (centres undefined) was what?
Response: FALSE

Request: Test call for this molecule, please: COc1ccc(CNC(=O)CN2CCC(n3nnc4cc(F)ccc43)CC2)cc1
Response: TRUE

Request: Which outcome did this test record for the molecule Cc1ccc(Cc2c(-c3ccccc3)nc3ccc(Cl)cn23)cc1 ?
Response: FALSE

###

The entries below come with measured max response, negative = inhibition values attached.
Measured on: D(3) dopamine receptor (Homo sapiens) (UniProt P35462)
Measurement description: qHTS of D3 Dopamine Receptor Antagonist: qHTS; note: % is set by controls: 0 for no effect and ±100 for the full control effect
Study conditions: D3R cells, DiscoveRx beta-arrestin luminescence, antagonist mode; active compounds read low
In all, about 360,000 compounds went through this assay and about 9,100 (2.5%) were called active. About 4% were inconclusive and are not listed. The sample holds actives, similar compounds and a random draw of the others, so the mix is not that of the screen.
Number only, in %; omit the unit.

Take a look at these entries with their results.
# Molecule, Quantity unit, max response, negative = inhibition
data = [
    ("C[C@@H]1CN([C@@H](C)CO)C(=O)c2c(c3ccccc3n2C)-c2ccccc2CO[C@H]1CN(C)C(=O)C1CC1", "%", 5.32),
    ("CC(=O)Nc1cccc(-c2ccnc3c2CC(C)(C(=O)NCc2ccccc2)O3)c1 (stereo not given)", "%", 0),
    ("CN(Cc1nc2ccccc2s1)C(=O)c1ccc(F)cc1", "%", -18.6),
    ("c1ccc(CCC2=NCCn3cccc32)cc1", "%", -55.5),
    ("CCCOc1ccc(F)cc1-c1cc(C(=O)Nc2ccc(F)cc2)[nH]n1", "%", 12.6),
    ("Cc1ccc(N2C(=O)CC(NCc3ccc4c(c3)OCO4)C2=O)cc1Cl (stereo not given)", "%", -53.6),
    ("Cc1ccc(CC2CC(=O)N(c3ccc4c(c3)OCCO4)C2=O)cc1 (stereo not given)", "%", 23.1),
    ("CC1=CC(=C(C#N)c2nc3ccccc3s2)C=C(C)N1c1ccc(F)cc1F", "%", -51.3),
    ("O=C1C=C(c2cccc(Cl)c2O)C[C@@H](c2ccc(F)cc2)C1", "%", -58.3),
]

The record that follows has no max response, negative = inhibition shown yet.
Request: Which max response, negative = inhibition value belongs to O=C(CN1CCN(C(=O)c2ccco2)CC1)Nc1ccc2c(c1)OCO2 ?
Response: -5.37

###

Measured on: D(3) dopamine receptor (Homo sapiens) (UniProt P35462)
Measurement description: qHTS of D3 Dopamine Receptor Antagonist: qHTS; note: % is set by controls: 0 for no effect and ±100 for the full control effect
Study conditions: D3R cells, DiscoveRx beta-arrestin luminescence, antagonist mode
Hit rate of the full screen: of about 360,000 compounds, about 9,100 (2.5%) were called active. Roughly 4% stayed inconclusive and do not appear here. Cut-off read from the data, not from the text of the source: active = max response below about -50%; inconclusive = no clear call, values can overlap the other calls; inactive = above that. Only a selection was taken, and actives are over-represented in it overall.
Mark one answer only. Choices: active, inactive

Reference set, count: 5
# Compound, Category
records = [
    ("OC(c1ccc(F)cc1)c1ncc(-c2cccc(C(F)(F)F)c2)[nH]1 (configuration not stated)", "inactive"),
    ("Clc1cccc(-c2nc3nc4ccccc4nc3n2Cc2ccco2)c1", "active"),
    ("CN(c1ccc(C(=O)N2CCc3ccccc3C2)cc1)S(C)(=O)=O", "inactive"),
    ("CC(=O)NC(c1ccccc1)c1nc(-c2cccc(C(C)C)c2)cs1 (configuration not stated)", "inactive"),
    ("CN(C(=O)CN1CCN(c2cc(-c3ccc(OCc4ccccc4)cc3)ncn2)CC1)c1ccccc1", "inactive"),
]

Request: Answer briefly: the call reported for CC(=O)OC[C@@H]1CN(Cc2ccccc2)C[C@H](n2cnc3c(NCc4ccco4)ncnc32)O1 in this assay.
Response: inactive

Request: # outcome recorded in this test, key = Cc1[nH]c2ccccc2c1C(=O)c1cc([C@H](NC(=O)OC(C)(C)C)C(C)C)sc1N
Response: inactive

###

Measured on: D(3) dopamine receptor (Homo sapiens) (UniProt P35462)
Measurement description: qHTS of D3 Dopamine Receptor Antagonist: qHTS; note: % is set by controls: 0 for no effect and ±100 for the full control effect
Study conditions: D3R cells, DiscoveRx beta-arrestin luminescence, antagonist mode
The campaign covered roughly 360,000 compounds. About 9,100 (2.5%) were called active. Roughly 4% stayed inconclusive and do not appear here. No stated cut-off is given here; in the data, active means max response below about -50%; inconclusive means no clear call, values can overlap the other calls; inactive means above that. Shown is part of a subset that was picked to be rich in actives.
Hi there, use one of these labels in your reply, thanks! active, inactive

Consider the worked cases shown below.
# Sample smiles, Category
records = [
    ("CN(c1cccc(NC(=O)c2ccc(CN3CCc4ccccc4C3)cc2)c1)S(C)(=O)=O", "active"),
    ("COc1ccc2cc1Oc1ccc(cc1)C[C@H]1c3cc(c(OC)cc3CCN1C)Oc1c(O)c(OC)cc3c1[C@H](C2)N(C)CC3", "inactive"),
    ("N#Cc1ccc(-c2nc3c(Cl)cc(C(F)(F)F)cn3c2Cc2ccccc2C(F)(F)F)cc1", "inactive"),
    ("COc1cc(C(=O)CCc2ccc3c(c2)OCO3)cc(OC)c1OC", "inactive"),
]

Consider the additional molecule presented here.
Request: Dear all, I need the recorded test outcome for CCOc1ccccc1OCC(=O)Nc1ccccc1C(=O)NC1CC1 , thank you.
Response: inactive
